Origin of the recorded values: ChEMBL document CHEMBL2380300

Species: Homo sapiens
Assay: Selectivity ratio of Ki for recombinant cathepsin-B (unknown origin) to Ki for recombinant cathepsin-L (unknown origin)
Peptide text beside a SMILES is read from it. * marks the point of attachment. Cbz = O=C(OCc1ccccc1)*
measure: Ratio Ki

CSCC[C@H](NC(=O)[C@H](Cc1ccccc1)NC(=O)OCc1ccccc1)C(N)=O (Cbz-Phe-Met-NH2): 111
NCCCC[C@H](NC(=O)[C@H](Cc1ccccc1)NC(=O)CCc1ccccc1)C(N)=O: 636

P = NCCCC[C@H](NC(=O)[C@H](Cc1ccccc1)NC(=O)C1=CCCC1)C(N)=O
Q = Cc1cccc(-c2ccc(C[C@H](NC(=O)OCc3ccccc3)C(=O)N[C@@H](CCCCN)C(N)=O)cc2)c1
Lab note: record which item had the higher Ratio Ki, P or Q . Answer format: the label of the selected item.
Q
(Q: 156, P: 80)

====

Biological target: Procathepsin L (Homo sapiens)
Sequence (P07711 whole entry): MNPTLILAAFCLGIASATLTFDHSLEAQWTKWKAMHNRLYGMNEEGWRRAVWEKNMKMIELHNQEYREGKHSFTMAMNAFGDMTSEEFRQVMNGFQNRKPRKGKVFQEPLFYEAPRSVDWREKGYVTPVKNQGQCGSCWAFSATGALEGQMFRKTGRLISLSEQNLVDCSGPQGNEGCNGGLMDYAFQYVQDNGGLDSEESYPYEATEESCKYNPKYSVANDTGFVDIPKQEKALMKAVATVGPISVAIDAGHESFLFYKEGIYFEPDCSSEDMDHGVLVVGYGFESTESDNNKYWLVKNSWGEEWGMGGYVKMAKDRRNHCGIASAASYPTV
Experiment: Inhibition of recombinant cathepsin-L (unknown origin) using Z-Phe-Arg-AMC as substrate by fluorescence assay
pKi: −log10 of the molar value.
measure: pKi

NCCCC[C@H](NC(=O)[C@H](Cc1ccccc1)NC(=O)c1c(F)c(F)c(F)c(F)c1F)C(N)=O: 5.17

A = NCCCC[C@H](NC(=O)[C@H](Cc1ccccc1)NC(=O)c1ccnc(-c2cc(C(=O)O)ccn2)c1)C(N)=O
B = NCCCC[C@H](NC(=O)[C@H](Cc1ccc(-c2cccs2)cc1)NC(=O)OCc1ccccc1)C(N)=O
C = CC(=O)Oc1cccc(C(=O)N[C@@H](Cc2ccccc2)C(=O)N[C@@H](CCCCN)C(N)=O)c1
Number of molecules to sort: 3. Sort criterion: pKi, ascending. Would you mind listing the labels in the order asked for?
A, C, B

====

Species on record: Homo sapiens
Test: Selectivity ratio of Ki for recombinant cathepsin-S (unknown origin) to Ki for recombinant cathepsin-L (unknown origin)
Peptide text beside a SMILES is read from it. * marks the point of attachment. Cbz = O=C(OCc1ccccc1)*
measure: Ratio Ki

N=C(N)NCCC[C@H](NC(=O)OCc1ccccc1)C(=O)N[C@@H](Cc1ccccc1)C(=O)N[C@@H](CCCCN)C(N)=O (Cbz-Arg-Phe-Lys-NH2): 11
NCCCC[C@H](NC(=O)[C@H](Cc1ccccc1)NC(=O)[C@H](Cc1c[nH]c2ccccc12)NC(=O)OCc1ccccc1)C(N)=O (Cbz-Trp-Phe-Lys-NH2): 51

P = NCCCC[C@H](NC(=O)[C@H](Cc1ccccc1)NC(=O)[C@H](CCCCN)NC(=O)OCc1ccccc1)C(N)=O (Cbz-Lys-Phe-Lys-NH2)
Q = NCCCC[C@H](NC(=O)[C@H](Cc1ccccc1)NC(=O)OCc1ccccc1)C(N)=O
R = NCCCC[C@H](NC(=O)[C@H](Cc1ccc(-c2cccs2)cc1)NC(=O)OCc1ccccc1)C(N)=O
S = CC(C)C[C@H](NC(=O)OCc1ccccc1)C(=O)N[C@@H](Cc1ccccc1)C(=O)N[C@@H](CCCCN)C(N)=O (Cbz-Leu-Phe-Lys-NH2)
Sort these compounds on Ratio Ki so the largest reading comes first. Would you mind listing the labels in the order asked for?
R, P, S, Q
(R: 233, P: 46, S: 27, Q: 13)

====

Organism: Homo sapiens
Assay: Selectivity ratio of Ki for recombinant cathepsin-B (unknown origin) to Ki for recombinant cathepsin-L (unknown origin)
Square brackets hold non-standard residues; d marks the D form. Peptide text beside a SMILES is read from it. * marks the point of attachment. Bip = N[C@@H](Cc1ccc(-c2ccccc2)cc1)C(=O)O; Phe(4-NH2) = Nc1ccc(C[C@H](N)C(=O)O)cc1; Cbz = O=C(OCc1ccccc1)*
measure: Ratio Ki

NCCCC[C@H](NC(=O)[C@H](Cc1ccc(-c2ccccc2)cc1)NC(=O)OCc1ccccc1)C(N)=O (Cbz-[Bip]-Lys-NH2): 32
NCCCC[C@H](NC(=O)[C@H](Cc1ccc(O)cc1)NC(=O)OCc1ccccc1)C(N)=O (Cbz-Tyr-Lys-NH2): 96

1 = NC(=O)[C@H](Cc1ccc(N)cc1)NC(=O)[C@H](Cc1ccccc1)NC(=O)OCc1ccccc1 (Cbz-Phe-[Phe(4-NH2)]-NH2)
2 = NCCCC[C@H](NC(=O)[C@H](Cc1ccc(-c2cccs2)cc1)NC(=O)OCc1ccccc1)C(N)=O
Lab note: record which item had the higher Ratio Ki, 1 or 2 . Answer format: the label of the selected item.
2
(2: 325, 1: 107)
